# target_of_assay: Human IgG
# assay_comment: method not given
value_type: Ka

- IgG-Fc-12 (VHH) VHH: QVQLQESGGGLVQAGGSLRLSCAVSGRTFSTYAMGWFRQAPGKEREFVGSINFKSGSIYLADSVKGRFTISGDNAQNTAYLQMTSLKPEDTAVYLCVARSFGTGQWDYWGQGTQVTVSS: > 4e+09 M⁻¹
- IgG-Fc-15 (VHH) VHH: QVQLQESGGGLVQAGGSLRLSCAVSGRGFSTYAMGWFRQAPGKEREFVGSANWKSGSIYVADSVKGRFTISNDNAQNTVYLQMSSLKPEDTAVYYCVARSFGTGQWDYWGQGTQVTVSS: > 4e+09 M⁻¹
- IgG-Fc-14 (VHH) VHH: QVQLQESGGGLVQTGGSLRLSCSASGGTFETYAMGWFRQAPGKEREFVGSTNWKSERTYVADSVKGRFTISRDNGQYTAYLQMTSLKPEDTAVYFCVARSFGTGQWDYWGQGTQVTVSS: > 4e+09 M⁻¹
- IgG-Fc-13 (VHH) VHH: QVQLQESGGGLVQAGGSLRLSCAASGDTFSTYAMGWFRQAPGKEREFVGRIVRGTESTYLIDSVKGRFAISRDNAQNTVYLQMTSLKPEDTAVYFCVARSFGAGQWDYWGQGTQVTVSS: > 4e+09 M⁻¹

Now, please, on to the next binder.
Requested field: Ka. Item: IgG-Fc-11 (VHH) VHH: QVQLQESGGGLVQAGGSLRLSCAVSGRTFSTYAMGWFRQAPGKEREFVGSANWKSGSTYLVDSVKGRFTISGDNAHDTVHLQMTSLKPEDTGVYFCVARSFGTGQWDYWGQGTQVTVSS
> 4e+09 M⁻¹

Values from patent US20150307627A1
